Test system: PC-3 cancer cells
assay details: MTT antiproliferative assay, PC-3
Assay type: cell-based, human
condition description: Homo sapiens; MTT assay after 48 h
IC50 strictly less than 20 µM = y. Otherwise n.

Look over these answered cases.
O=C(/C=C/c1ccccc1)NNC(=O)/C=C/c1cccnc1    n
O=C(/C=C/c1ccccc1)NNC(=O)/C=C/c1ccc([N+](=O)[O-])cc1    y
O=C(/C=C/c1ccccc1)NNC(=O)/C=C/c1ccccc1[N+](=O)[O-]    y

Pending molecule:
IN: Please determine if COc1cc(/C=C/C(=O)CC(=O)/C=C/c2ccc(O)c(OC)c2)ccc1O [Curcumin, reference compound] is below 20 µM in terms of IC50.
OUT: n
